# Tested on: Nanoluciferase (engineered Oplophorus gracilirostris luciferase)
# assay.overview: Primary Nanoluciferase (NLuc) qHTS assay for identification of artifact compounds. (AID 1845222);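 also: NLuc secreted into diluted conditioned medium of S16 cells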
# condition.parameters: NLuc-conditioned medium, Nano-Glo luminescence, 5 min; series mostly up to 54.1 µM
Active and inactive are the calls of the source. Calls follow the shape of the dose curve; as a rule, active = well fitted inhibition curve with a large enough effect; inconclusive = small, poorly fitted or top-dose-only effect; inactive = flat fitted curve, though single readings scatter.
recorded.metric: activity, negative = inhibition

C=C[C@@]1(C)CCC2=C([C@H]1OC(C)=O)[C@H](OC(C)=O)CC1[C@](C)(C(=O)OC)CC[C@H](OC(C)=O)[C@]21C (some centres undefined): inactive
C=C(C)[C@@H]1CC[C@]2(CO)CC[C@]3(C)[C@H](CC[C@@H]4[C@@]5(C)CC[C@H](O)C(C)(C)[C@@H]5CC[C@]43C)[C@@H]12: inactive
CC(=O)/C=C/C1(O)C(C)CC(O[C@@H]2O[C@H](CO)[C@@H](O)[C@H](O)[C@H]2O)CC1(C)C (some centres undefined): inactive
O=C1NC(=O)/C(=C/c2cccc(C(F)(F)F)c2)S1: inactive
